Reported percent recovery, combination treatment values for a set of compounds
Tested on: P. aeruginosa
Assay: Bactericidal assessment with tetracycline
Format: cell-based
Settings: 50 μM tetracycline + MPC of EPI
Experimental: Lead agents were screened for bactericidal activity as described previously (Van Horn, et al. J. Med. Chem. 2014, 57, 3075-3093; […], et al. J. Med. Chem. 2015, 58, 3340-3355), with the following modifications. […] Biofilm experiments were performed similar to those described previously ([…], et al. J. Med. Chem. 2015, 58, 3340-3355; von Salm, et al. Org. Lett. 2016, 18, 2596-2599), with the following modifications.
Assay metric: percent recovery, combination treatment (%)

>>> df
                                   compound  experimental_value
0  CNCCCC[C@H](CN)NC[C@H](Cc1ccccc1)NCCc1ccccc1 [TPI 266]                0.01
1  CNCCCC[C@@H](CN)NC[C@H](Cc1ccccc1)NCCc1ccccc1 [TPI 247]                0.04
2  NCC[C@@H](CN)NC[C@H](Cc1ccccc1)NCCc1ccccc1 [TPI 250]                0.01
3  NCCC[C@H](CN)NC[C@H](Cc1ccccc1)NCCc1ccccc1 [TPI 271]                0.02
4  NCCC[C@@H](CN[C@H](CN)Cc1ccccc1)NCCc1ccccc1 [TPI 314]                0.01
